Give measured binding affinity ratio (IC50 of standard peptide / IC50 of test peptide) for each item. Keep answers brief.
ASSAY TARGET: HLA-A*1101 (human)
TEST NAME: competitive inhibition of 125I-labelled probe peptide binding to purified HLA; relative to standard peptide

The binder listed as LTVNEKRR (modifications not checked) [HBV POL 99 peptide LTVNEKRR] has a reported binding affinity ratio (IC50 of standard peptide / IC50 of test peptide) of -0.0002

Entry under test: KAGILYKR (modifications not checked) [HBV POL 153 peptide KAGILYKR] . Its binding affinity ratio (IC50 of standard peptide / IC50 of test peptide) was -0.0002

Briefly, binding affinity ratio (IC50 of standard peptide / IC50 of test peptide) measured for GIHLNPNKTK (modifications not checked) [HBV POL 567 peptide …] : 0.0011

Sure, the documented binding affinity ratio (IC50 of standard peptide / IC50 of test peptide) for NLEDPASR (modifications not checked) [HBV NUC 75 peptide NLEDPASR] is -0.0002
